Where do the numbers come from? From patent US11673891B2.

- System: human adult PBMCs
- Assay: TNF production by ELISA after stimulation of human adult PBMCs
- Format: cell-based
- Measurement Setup: median percentage TNF production as compared to R848; adult PBMCs, 33 μM, 18 hours, N=3-5

{"columns": ["Compound", "TNF % (Median) (%)"],
 "data": [
  ["COc1cnc2nc(-c3ccc(C)c(NC(=O)c4ccccc4C)c3)cn2c1 [FRF-02-134]", 0.18],
  ["COc1cnc2nc(-c3ccc(C)c(NC(=O)c4ccccc4Br)c3)cn2c1 [FRF-02-132]", 0.18],
  ["COc1ccc(C(=O)Nc2cc(-c3cn4cccnc4n3)ccc2C)c(C)c1 [FRF-02-182]", 0.39],
  ["Cc1cnc2nc(-c3ccc(C)c(NC(=O)c4ccccc4C)c3)cn2c1 [FRF-02-162-2]", 6.34],
  ["Cc1cnc2nc(-c3ccc(Cl)c(NC(=O)c4ccccc4C(F)(F)F)c3)cn2c1 [FRF-02-174-2]", 13.99],
  ["CCC(C(=O)Nc1cc(-c2cn3cccnc3n2)ccc1C)c1ccccc1 (stereo not drawn) [Compound 37]", 69.79],
  ["Cc1ccc(-c2cn3cc(F)cnc3n2)cc1NC(=O)c1ccccc1C(F)(F)F [FRF-02-118]", 43.53],
  ["Cc1ccc(-c2cn3cccnc3n2)cc1NC(=O)c1ccccc1C [Example 37.17]", 20.64],
  ["Cc1cnc2nc(-c3ccc(C)c(NC(=O)Cc4ccccc4)c3)cn2c1 [FRF-02-162-1]", 0.42],
  ["Cc1ccc(-c2cn3cc(F)cnc3n2)cc1NC(=O)c1c(F)cccc1C(F)(F)F [FRF-02-175]", 1.43],
  ["Cc1ccc(-c2cn3cc(F)cnc3n2)cc1NC(=O)c1ccc(F)cc1C(F)(F)F [FRF-02-167]", 51.62],
  ["Cc1ccc(-c2cn3cc(F)cnc3n2)cc1NC(=O)C(CO)c1ccccc1 (stereo not drawn) [FRF-02-194]", 0.18],
  ["CCC(C(=O)Nc1cc(-c2cn3cc(F)cnc3n2)ccc1C)c1ccccc1 (stereo not drawn) [FRF-02-119]", 4.35],
  ["Cc1cnc2nc(-c3ccc(C)c(NC(=O)c4ccccc4C(F)(F)F)c3)cn2c1 [FRF-02-144-3]", 99.81],
  ["Cc1ccc(-c2cn3cccnc3n2)cc1NC(=O)c1ccccc1C(F)(F)F [Example 37.37]", 71.12],
  ["COc1ccc(C)c(C(=O)Nc2cc(-c3cn4cccnc4n3)ccc2C)c1 [FRF-02-183]", 0.77],
  ["Cc1cnc2nc(-c3ccc(C)c(NC(=O)c4ccccc4Cl)c3)cn2c1 [FRF-02-144-2]", 104.32],
  ["CCC(C(=O)Nc1cc(-c2cn3cc(OC)cnc3n2)ccc1C)c1ccccc1 (stereo not drawn) [FRF-02-137]", 1.27]
]}

* * *

- Test system: human adult PBMCs
- Assay: TNF production by ELISA after stimulation of human adult PBMCs
- Assay type: cell-based
- Measurement Setup: adult PBMCs, 33 μM, 18 hours, ELISA; median, N=3-5; unit not given (FIG. 6B/7B legends: TNF concentration in ng/ml)
Entries whose TNF (Median) is below 0.6 take satisfied; entries at or above 0.6 take not satisfied.

{"columns": ["Molecule", "Group Label"],
 "data": [
  ["Cc1cnc2nc(-c3ccc(C)c(NC(=O)c4ccccc4C)c3)cn2c1", "satisfied"],
  ["Cc1ccc(-c2cn3cccnc3n2)cc1NC(=O)c1ccccc1C", "not satisfied"],
  ["Cc1ccc(-c2cn3cc(F)cnc3n2)cc1NC(=O)c1ccccc1C", "satisfied"],
  ["Cc1ccc(-c2cn3cc(F)cnc3n2)cc1NC(=O)c1ccc(Cl)cc1C(F)(F)F", "satisfied"],
  ["Cc1cnc2nc(-c3ccc(C)c(NC(=O)c4ccccc4C(F)(F)F)c3)cn2c1", "not satisfied"],
  ["COc1ccc(C)c(C(=O)Nc2cc(-c3cn4cccnc4n3)ccc2C)c1", "satisfied"],
  ["CCC(C(=O)Nc1cc(-c2cn3cc(OC)cnc3n2)ccc1C)c1ccccc1 (stereo not drawn)", "satisfied"],
  ["Cc1ccc(-c2cn3cc(F)cnc3n2)cc1NC(=O)c1cc(F)ccc1C(F)(F)F", "not satisfied"]
]}
